So I've got a bunch of compounds here, and I need their Clobs values.
# assayText: Mouse pharmacokinetics;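 further: three mice per experiment, dosed in 10% DMSO with 50 mM Na2HPO4 buffer plus Tween-80, plasma levels quantified by LC-MS against a calibration line prepared in blank matrix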
# Format: in vivo
# conditionDetails: 0.5 mg/kg iv, in a mixture of 5 compounds
One number for each entry, in mL/min/kg.

Below, each entry is followed by its recorded Clobs result.
compound	resultUnits	Clobs
Fc1ccc(-c2cn3c(-c4ccc5[nH]ncc5c4F)c(C(F)(F)F)nc3cn2)cc1C(F)(F)C(F)(F)F [LSHTM-3645]	mL/min/kg	3.5
CC(C)c1nn2cnc(-c3ccc(F)c(C(F)(F)F)c3)cc2c1-c1ccc2[nH]ncc2c1F [LSHTM-3644]	mL/min/kg	6.33
Fc1c(-c2c(C(F)(F)F)nc3cnc(-c4cccc(C(F)(F)C(F)(F)F)c4)cn23)ccc2[nH]ncc12 [LSHTM-3608]	mL/min/kg	1.5

Could you now look at the following compound, please?
Any idea what its Clobs is? The compound is CC(C)c1cc(-c2cn3c(-c4ccc5[nH]ncc5c4F)c(C4CC4)nc3cn2)ccc1F [LSHTM-3686]
15.7
